src = patent US11266686B2

test: Pharmacokinetics in mice after oral administration, plasma and brain by LC/MS/MS
cond: mouse, 30 mg/kg CuXTSM API oral
reported_metric: Brain:plasma-ratio (Cmax-based)
# output: bare number, no unit

// solved cases for Brain:plasma-ratio (Cmax-based) follow
{"columns": ["compound", "readout_value"],
 "data": [
  ["CNC1=NN=C(C)C(C)=NN=C(NC)[S][Cu][S]1.O=C1NS(=O)(=O)c2ccccc21.O=C1NS(=O)(=O)c2ccccc21 [CuATSM:saccharin (1:2)]", 2.5],
  ["CNC1=NN=C(C)C(C)=NN=C(NC)[S][Cu][S]1.O=C(O)C(O)C(O)C(O)C(O)CO.O=C(O)C(O)C(O)C(O)C(O)CO [CuATSM:gluconic acid (1:2)]", 3.6]
]}

query: Entry CNC1=NN=C(C)C(C)=NN=C(NC)[S][Cu][S]1 [CuATSM, reference compound] has what Brain:plasma-ratio (Cmax-based)?
result: 1.3

query: Record: CNC1=NN=CC(C)=NN=C(NC)[S][Cu][S]1.O=C1NS(=O)(=O)c2ccccc21.O=C1NS(=O)(=O)c2ccccc21 [CuPTSM:saccharin (1:2)]
result: 2.1
